System: MOLT-4 leukemia
ASSAY COMMENT: NCI-60 one-dose screen, 48 h (100 = growth as untreated, 0 = no growth, -100 = all killed)
CONDITION SUMMARY: 10 µM unless noted
About 83,000 compounds went through this panel and 20% of them were active in at least one assay; those are over-represented in the sample as a whole.
For each entry below, report its growth value.
Numeric only. Scale: %

Query: Look up growth of COc1ccc(CNc2c3ccccc3nc3ccccc23)cc1OC and report it.
Reply: 10.6

Query: Look up growth of CCN=c1sc2c(n1NC(=O)c1cc3ccc1CCc1ccc(cc1)CC3)C(=O)c1ccccc1C2=O and report it.
Reply: -32.8

Query: Look up growth of COC(=O)c1nc(-c2ccc(C)cc2)oc1N1CCOCC1 and report it.
Reply: 80.8

Query: Look up growth of Cn1ncc(CC(=O)O)c1-n1nnc2cc(Cl)ccc2c1=O and report it.
Reply: 100

Query: Look up growth of COc1cccc(CNc2nnc(C)c(C)n2)c1O and report it.
Reply: 109

Query: Look up growth of Cc1c2cnccc2c(C)c2c1c1cc(C(=O)O)ccc1n2C and report it.
Reply: 1.6

Query: Look up growth of CC(C)=CC(=O)C1C(=O)c2ccccc2C1=O and report it.
Reply: 103

Query: Look up growth of COc1cc(/C=C2\CN(S(=O)(=O)c3ccc(C)cc3)C/C(=C\c3cc(CN4CCCC4)c(O)c(OC)c3)C2=O)cc(CN2CCCC2)c1O and report it.
Reply: -8.53

Query: Look up growth of CC1=C(C(=O)c2ccccc2)C(c2ccc3c(c2)OCO3)NC(=S)N1 (stereo not given) and report it.
Reply: 36.6

Query: Look up growth of CN1CCN(c2ccc(Nc3ncc4[nH]c(=O)n(Cc5ccccc5N)c4n3)cc2)CC1 and report it.
Reply: 93.4

* * *

System: HCC-2998 colon
ASSAY COMMENT: NCI-60 one-dose screen, 48 h (100 = growth as untreated, 0 = no growth, -100 = all killed)
CONDITION SUMMARY: 10 µM unless noted
Compounds without any hit were thinned out: in the full panel of roughly 83,000, 20% have a hit.
For each entry below, report its growth value.
Numeric only. Scale: %

Query: Look up growth of CCOc1ccc(N2C(=O)CCSC2=S)cc1 and report it.
Reply: 104

Query: Look up growth of COc1ccc(NC(=O)c2ccc(Cl)cc2Cl)cc1 and report it.
Reply: 105

Query: Look up growth of CCC(=C(c1ccc(OCCN(CC)CC)cc1)c1ccc(OCCN(CC)CC)cc1)c1ccc(Cl)cc1 and report it.
Reply: -91

Query: Look up growth of Cc1ccc(C(F)(F)F)cc1N1CCN(C(=O)[C@H]2C[C@H]2c2ccc(C(F)(F)F)nc2)CC1 and report it.
Reply: 101

Query: Look up growth of COc1cc2cc(Oc3ccc(NC(=O)Nc4ccc(Cl)c(Cl)c4)cc3)c(C)nc2cc1OCCN1CCCCC1 and report it.
Reply: 104

Query: Look up growth of COc1ccc(/C=C2/CCc3cc4ccc(OC)cc4[o+]c32)c(O)c1 and report it.
Reply: 64.3

Query: Look up growth of O=C(NS(=O)(=O)c1ccccc1)n1cc(-c2ccncc2)c(-c2cc(O)cc(Cl)c2)n1 and report it.
Reply: 128

Query: Look up growth of C#CCOc1cccc(-c2ncnc3cc(NC(=O)CCl)ccc23)c1 and report it.
Reply: 56.6

Query: Look up growth of CC1(C)CC[C@]2(CO)CC[C@]3(C)C(=CC[C@@H]4[C@@]5(C)CCNCC(C)(C)[C@@H]5CC[C@]43C)[C@@H]2C1 and report it.
Reply: -60.8

Where do these numbers come from? They come from PubChem BioAssay (NCI).
